Catalogue of EC50 readings, one per entry.
molecular target: CXCR7 (Homo sapiens, UniProt P25106); assay: PathHunter CHO-K1 CXCR7 b-arrestin assay (agonistic activity); details: PathHunter CHO-K1 CXCR7 b-arrestin cell line, 90 minutes at 37° C.
Sequence (P25106 whole entry): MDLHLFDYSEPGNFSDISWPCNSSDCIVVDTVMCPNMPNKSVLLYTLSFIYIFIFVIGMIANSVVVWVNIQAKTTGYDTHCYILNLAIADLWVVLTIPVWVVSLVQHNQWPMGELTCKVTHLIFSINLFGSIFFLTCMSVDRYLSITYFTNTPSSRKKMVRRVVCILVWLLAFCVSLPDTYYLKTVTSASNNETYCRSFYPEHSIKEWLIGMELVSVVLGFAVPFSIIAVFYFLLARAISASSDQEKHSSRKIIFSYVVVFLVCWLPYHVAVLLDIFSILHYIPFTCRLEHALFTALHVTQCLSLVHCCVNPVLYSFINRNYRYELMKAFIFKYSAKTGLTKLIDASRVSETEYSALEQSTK
Property name: EC50

Molecule	Property name	Observed
CCC(CO)NC(=O)C1CCN(Cc2cccc(NC(=O)c3cccc(C(F)(F)F)n3)c2)CC1 (stereo not shown) [Example 2.065]	EC50	0.026 µM
CNC(=O)C1CCN(Cc2cccc(NC(=O)c3cccs3)c2)CC1 [Example 2.072]	EC50	0.188 µM
CCCCNC(=O)C1CCN(Cc2cccc(NC(=O)c3cccc(C(F)(F)F)n3)c2)CC1 [Example 2.095]	EC50	0.002 µM
O=C(NC1CCCCC1)C1CCN(Cc2cccc(NC(=O)[C@@H]3C[C@@H]4CC[C@H]3C4)c2)CC1 (racemic) [Example 1.018]	EC50	0.005 µM

---

Catalogue of EC50 readings, one per entry.
biological target: CXCR7 (Homo sapiens, UniProt P25106); experiment: PathHunter CHO-K1 CXCR7 b-arrestin assay (agonistic activity); settings: PathHunter CHO-K1 CXCR7 b-arrestin cell line, 90 minutes at 37° C.
Property name: EC50 (nM)

Compound	Study system	Property name	Observed
O=C(Nc1cc(CN2CCC(C(=O)NC3CCCCC3)CC2)ccn1)c1ccc(Cl)cc1 [Example 3.002]	CXCR7 (Homo sapiens, UniProt P25106)	EC50	57
CC(C)(C)[C@@H](CO)NC(=O)C1CCN(Cc2cccc(NC(=O)c3cccc(C(F)(F)F)n3)c2)CC1 [Example 2.067]	CXCR7 (Homo sapiens, UniProt P25106)	EC50	406
O=C(Nc1cccc(CN2CCC(C(=O)NC3Cc4ccccc4C3)CC2)c1)c1ccc(Cl)cc1 [Example 2.033]	CXCR7 (Homo sapiens, UniProt P25106)	EC50	9
Cc1cncc(C(=O)Nc2cccc(CN3CCC(F)(C(=O)NC4CCCCC4)CC3)c2)c1 [Example 4.001]	CXCR7 (Homo sapiens, UniProt P25106)	EC50	46
CC(C)(C)C1CCC(NC(=O)C2CCN(Cc3cccc(NC(=O)c4ccc(Cl)cc4)c3)CC2)CC1 (centres unmarked) [Example 2.012]	CXCR7 (Homo sapiens, UniProt P25106)	EC50	1050
O=C(Nc1cccc(CN2CCC(C(=O)NC3CCCCC3)CC2)c1)c1cccnc1 [Example 1.003]	CXCR7 (Homo sapiens, UniProt P25106)	EC50	23
CC(C)CCNC(=O)C1CCN(Cc2cccc(NC(=O)c3cccc(C(F)(F)F)n3)c2)CC1 [Example 2.081]	CXCR7 (Homo sapiens, UniProt P25106)	EC50	5
Cc1cncc(C(=O)Nc2cccc(CN3CCC(C(=O)NCC4CC4)CC3)c2)c1 [Example 2.043]	CXCR7 (Homo sapiens, UniProt P25106)	EC50	20

---

target: CXCR7 (Homo sapiens, UniProt P25106); assay: PathHunter CHO-K1 CXCR7 b-arrestin assay (agonistic activity); conditions: PathHunter CHO-K1 CXCR7 b-arrestin cell line, 90 minutes at 37° C.
Threshold-based label: EC50 under 40 nM gives y, EC50 not under 40 nM gives n.

Compound	Study system	Class name
Cc1cncc(C(=O)Nc2cccc(CN3CCC(C(=O)NC4CCC4)CC3)c2)c1 [Example 2.041]	CXCR7 (Homo sapiens, UniProt P25106)	y
COc1cncc(C(=O)Nc2cccc(CN3CCC(C(=O)NC4CCCCC4)CC3)c2)c1 [Example 4.012]	CXCR7 (Homo sapiens, UniProt P25106)	y
CCCCCCNC(=O)C1CCN(Cc2cccc(NC(=O)c3cccc(C(F)(F)F)n3)c2)CC1 [Example 2.078]	CXCR7 (Homo sapiens, UniProt P25106)	n
CC(C)(C)NC(=O)C1CCN(Cc2cc(NC(=O)c3cccc(C(F)(F)F)n3)ncn2)CC1 [Example 5.001]	CXCR7 (Homo sapiens, UniProt P25106)	y
CC1(C(=O)NC2CCCCC2)CCN(Cc2cccc(NC(=O)c3cccc(C(F)(F)F)n3)c2)CC1 [Example 4.010]	CXCR7 (Homo sapiens, UniProt P25106)	n
O=C(Nc1cccc(CN2CCC(C(=O)NCC(F)(F)F)CC2)c1)c1ccc(Cl)cc1 [Example 2.031]	CXCR7 (Homo sapiens, UniProt P25106)	y
Cc1cncc(C(=O)Nc2cccc(CN3CCC(C(=O)NC4CCCCC4)C3)c2)c1 (centres unmarked) [Example 2.063]	CXCR7 (Homo sapiens, UniProt P25106)	n
CC(NC(=O)C1CCN(Cc2cccc(NC(=O)c3ccc(Cl)cc3)c2)CC1)c1cccc2ccccc12 (racemic) [Example 2.018]	CXCR7 (Homo sapiens, UniProt P25106)	n
Cc1cncc(C(=O)Nc2cc(CN3CCC(C(=O)NC(C)(C)C)CC3)cs2)c1 [Example 3.012]	CXCR7 (Homo sapiens, UniProt P25106)	n
O=C(Nc1cccc(CN2CCC(C(=O)NC3CC3)CC2)c1)c1ccc(Cl)cc1 [Example 2.006]	CXCR7 (Homo sapiens, UniProt P25106)	y
O=C(Nc1cccc(CN2CCC(C(=O)NCc3ccccc3Cl)CC2)c1)c1ccc(Cl)cc1 [Example 2.025]	CXCR7 (Homo sapiens, UniProt P25106)	y
Cc1cncc(C(=O)Nc2cccc(CN3CCC(C(=O)NC4CC4)CC3)c2)c1 [Example 2.037]	CXCR7 (Homo sapiens, UniProt P25106)	n
Cc1cncc(C(=O)Nc2cccc(CN3CCC(C(=O)NC4CCCC4)C3)c2)c1 (centres unmarked) [Example 2.062]	CXCR7 (Homo sapiens, UniProt P25106)	y
Cc1cncc(C(=O)Nc2cccc(CN3CCC(C(=O)N4CCCC4)CC3)c2)c1 [Example 2.047]	CXCR7 (Homo sapiens, UniProt P25106)	n
CC(C)(C)NC(=O)C1(C)CCN(Cc2cccc(NC(=O)c3cccc(C(F)(F)F)n3)c2)CC1 [Example 4.011]	CXCR7 (Homo sapiens, UniProt P25106)	y
Cc1cncc(C(=O)Nc2csc(CN3CCC(C(=O)NC(C)(C)C)CC3)c2)c1 [Example 3.013]	CXCR7 (Homo sapiens, UniProt P25106)	y
O=C(Nc1cccc(CN2CCC(C(=O)NC3CCCCC3)CC2)c1)c1ccc(Cl)cc1 [Example 1.001]	CXCR7 (Homo sapiens, UniProt P25106)	y
Cc1cncc(C(=O)Nc2cccc(CN3CCC(C(=O)NC(C)C)CC3)c2)c1 [Example 2.038]	CXCR7 (Homo sapiens, UniProt P25106)	y
Cc1cncc(C(=O)Nc2cccc(CN3CCC(C(=O)NC(C)(C)C)CC3)c2)c1 [Example 2.039]	CXCR7 (Homo sapiens, UniProt P25106)	y
O=C(Nc1cccc(CN2CCC(C(=O)NC3CCCCC3)CC2)c1)c1cccc(C(F)(F)F)n1 [Example 1.002]	CXCR7 (Homo sapiens, UniProt P25106)	y
CC(C)(CO)NC(=O)C1CCN(Cc2cccc(NC(=O)c3cccc(C(F)(F)F)n3)c2)CC1 [Example 2.091]	CXCR7 (Homo sapiens, UniProt P25106)	y
Cc1cncc(C(=O)Nc2cccc(CN3CCC(C(=O)N(C)C)CC3)c2)c1 [Example 2.055]	CXCR7 (Homo sapiens, UniProt P25106)	n
O=C(Nc1cccc(CN2CCCC(C(=O)NCC3CC3)CC2)c1)c1cccc(C(F)(F)F)n1 (racemic) [Example 2.089]	CXCR7 (Homo sapiens, UniProt P25106)	y
Cc1cncc(C(=O)Nc2cccc(CN3CCC(C(=O)N4CCCCCC4)CC3)c2)c1 [Example 2.048]	CXCR7 (Homo sapiens, UniProt P25106)	y
Cc1cncc(C(=O)Nc2cccc(CN3CCC(C(=O)NC4(C#N)CC4)CC3)c2)c1 [Example 2.045]	CXCR7 (Homo sapiens, UniProt P25106)	n
Cc1cncc(C(=O)Nc2ccc(F)c(CN3CCC(C(=O)NC(C)(C)C)CC3)c2)c1 [Example 4.019]	CXCR7 (Homo sapiens, UniProt P25106)	y
Cc1cncc(C(=O)Nc2cccc(CN3CCC(C(=O)N4C(C)CCC4C)CC3)c2)c1 (centres unmarked) [Example 2.051]	CXCR7 (Homo sapiens, UniProt P25106)	n
Cc1cncc(C(=O)Nc2cccc(CN3CCC(C(=O)N4CCC(F)(F)CC4)CC3)c2)c1 [Example 2.049]	CXCR7 (Homo sapiens, UniProt P25106)	n
Cc1cncc(C(=O)Nc2cccc(CN3CCCC(C(=O)NCC4CC4)CC3)c2)c1 (racemic) [Example 2.084]	CXCR7 (Homo sapiens, UniProt P25106)	n
O=C(Nc1cccc(CN2CCC(C(=O)NC3CC4CCC3C4)CC2)c1)c1ccc(Cl)cc1 (racemic) [Example 2.008]	CXCR7 (Homo sapiens, UniProt P25106)	y
CC(C)(C)NC(=O)C1(F)CCN(Cc2cccc(NC(=O)c3cccc(C(F)(F)F)n3)c2)CC1 [Example 4.009]	CXCR7 (Homo sapiens, UniProt P25106)	y

Origin of values: patent US20130345199A1
